Biological target: T1, human TIGIT-Fc (rhTIGIT-Fc, R&D Systems) (human, UniProt Q495A1 22-141)
T1 construct: Bought protein; also called human TIGIT (rhTIGIT-Fc); not shown: Fc part of the bought fusion protein
T1 sequence: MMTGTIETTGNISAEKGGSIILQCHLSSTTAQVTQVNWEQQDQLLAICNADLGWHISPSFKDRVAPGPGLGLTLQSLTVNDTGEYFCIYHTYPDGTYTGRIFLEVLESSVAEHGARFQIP
Assay: SPR (BIAcore T200), antibody immobilised on CM5 chip, TIGIT-Fc flowed
reported property: kon (M⁻¹ s⁻¹)
Record the value in M⁻¹ s⁻¹, omitting the unit from your answer.

• S64-39-IgG4 (antibody, V domains shown, also called 564-39-IgG4 [sic]) VH: EVQLLESGGGLVQPGGSLRLSCAASGFTFSNYAMSWVRQAPGKGLEWVSGISPSGSSIYYADSVQGRFTISRDNSKNTLYLQMNSLRAEDTAVYYCAKAIRTCSLSHCYYYYGMDVWGQGTLVTVSS VL: QSVLTQPPSASGTPGQRVTISCSSSSSNIGSNAVNWYQQLPGTAPKLLIYYDNQRPSGVPDRFSGSKSGTSASLAISGLRSEDEADYYCATWDYSLSGYVFGGGTKLTVL = 28200
• S64-39-IgG1 (antibody, V domains shown, also called 564-39-IgG1 [sic]; antibody based on the S64-39 clones) VH: EVQLLESGGGLVQPGGSLRLSCAASGFTFSNYAMSWVRQAPGKGLEWVSGISPSGSSIYYADSVQGRFTISRDNSKNTLYLQMNSLRAEDTAVYYCAKAIRTCSLSHCYYYYGMDVWGQGTLVTVSS VL: QSVLTQPPSASGTPGQRVTISCSSSSSNIGSNAVNWYQQLPGTAPKLLIYYDNQRPSGVPDRFSGSKSGTSASLAISGLRSEDEADYYCATWDYSLSGYVFGGGTKLTVL = 33700

Here is the next item to consider.
Notebook: 10A7 antibody (antibody, V domains shown) VH: EVQLVESGGGLTQPGKSLKLSCEASGFTFSSFTMHWVRQSPGKGLEWVAFIRSGSGIVFYADAVRGRFTISRDNAKNLLFLQMNDLKSEDTAMYYCARRPLGHNTFDSWGQGTLVTVSS VL: DIVMTQSPSSLAVSPGEKVTMTCKSSQSLYYSGVKENLLAWYQQKPGQSPKLLIYYASIRFTGVPDRFTGSGSGTDYTLTITSVQAEDMGQYFCQQGINNPLTFGDGTKLEIKR , kon read as 162000
